Recorded remaining activity at 1 µM, one value per entry.
Molecular target: ERK2 (Homo sapiens)
Sequence (P28482 whole entry): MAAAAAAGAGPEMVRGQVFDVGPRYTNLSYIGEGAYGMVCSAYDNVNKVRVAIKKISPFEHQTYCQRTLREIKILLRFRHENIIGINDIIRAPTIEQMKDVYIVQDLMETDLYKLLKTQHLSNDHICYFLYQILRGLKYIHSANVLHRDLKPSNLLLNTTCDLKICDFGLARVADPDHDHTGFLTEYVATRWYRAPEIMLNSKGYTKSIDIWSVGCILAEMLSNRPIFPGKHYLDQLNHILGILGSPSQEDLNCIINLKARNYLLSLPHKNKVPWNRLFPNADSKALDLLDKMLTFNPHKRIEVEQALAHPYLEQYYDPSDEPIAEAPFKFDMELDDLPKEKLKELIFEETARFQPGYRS
Assay: Kinase profiling (radiometric filter-binding)
Assay type: biochemical
Settings: ERK2, 1 µM inhibitor; read-out: Residual activity, %
Experimental: Kinase selectivity profiling was performed using the commercial service provided by the MRC PPU International Centre for Kinase Profiling (Dundee, UK) using a radiometric filter-binding assay. Kinases used for analysis were of human origin. The ATP concentration applied for inhibition measurements was at or below the ATP KM value of the particular PK. […] Residual activities were expressed as the percentage of retained activity compared to the control without inhibitor.
Give your result in % as a bare value.

[
  {
    "compound": "N=C(N)NCCC[C@@H](NC(=O)CCCCCNC(=O)Cn1cnc2c(I)c(I)c(I)c(I)c21)C(=O)N[C@H](CCCNC(=N)N)C(=O)N[C@H](CCCNC(=N)N)C(=O)N[C@H](CCCNC(=N)N)C(=O)N[C@H](CCCNC(=N)N)C(=O)N[C@H](CCCNC(=N)N)C(=O)N[C@H](CCCCN)C(N)=O [ARC-3125, TIBI-CH2-C(=O)-Ahx-(D-Arg)6-D-Lys-NH2]",
    "remaining activity at 1 µM [%]": 161
  }
]

Now let's try a different one.
## Task Annotate the compound N=C(N)NCCC[C@@H](NC(=O)CNC(=O)[C@@H](CCCNC(=N)N)NC(=O)[C@@H](CCCNC(=N)N)NC(=O)Cn1cc(CNCc2nc3c(sc4ccc(Br)cc43)c(=O)[nH]2)nn1)C(=O)N[C@H](CCCCN)C(N)=O [Compound 3, BBTP-Amt-(D-Arg)2-Gly-D-Arg-D-Lys-NH2] with its measured remaining activity at 1 µM.
## Result 104

* * *

Target: PKB (Homo sapiens, UniProt P31749)
Sequence (P31749 whole entry): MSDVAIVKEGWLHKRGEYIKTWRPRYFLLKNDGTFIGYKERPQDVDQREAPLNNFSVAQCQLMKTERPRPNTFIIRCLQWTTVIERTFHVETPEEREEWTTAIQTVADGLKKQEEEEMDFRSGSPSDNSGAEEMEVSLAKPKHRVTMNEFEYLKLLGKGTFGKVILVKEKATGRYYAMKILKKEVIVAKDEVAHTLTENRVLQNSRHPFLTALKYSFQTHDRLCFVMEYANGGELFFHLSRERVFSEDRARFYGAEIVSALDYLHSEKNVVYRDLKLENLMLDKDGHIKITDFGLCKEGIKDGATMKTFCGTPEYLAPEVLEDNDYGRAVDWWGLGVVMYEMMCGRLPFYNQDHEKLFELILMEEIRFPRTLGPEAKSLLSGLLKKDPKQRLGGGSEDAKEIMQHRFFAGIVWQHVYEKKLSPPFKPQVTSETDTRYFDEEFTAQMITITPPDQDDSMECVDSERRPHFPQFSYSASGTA
Assay: Kinase profiling (radiometric filter-binding)
Type: biochemical
Details: first of two PKB lines (Greek letter lost), 1 µM inhibitor, read-out: Residual activity, %
Square brackets hold non-standard residues; d marks the D form. Peptide text beside a SMILES is read from it. * marks the point of attachment. X3 = O=C(CCCCCNCc1nc2c(sc3cc(Br)cnc32)c(=O)[nH]1)*
property: remaining activity at 1 µM (%)
The figure you give is taken to be in %; do not add the unit.

Worked cases, answers included:
[
  {
    "compound": "N=C(N)NCCC[C@@H](NC(=O)CCCCCNCc1nc2c(sc3cc(Br)cnc32)c(=O)[nH]1)C(=O)N[C@H](CCCNC(=N)N)C(=O)N[C@H](CCCNC(=N)N)C(=O)N[C@H](CCCNC(=N)N)C(=O)N[C@H](CCCNC(=N)N)C(=O)N[C@H](CCCNC(=N)N)C(=O)N[C@H](CCCCN)C(N)=O [ARC-3126, BPTP-Ahx-(D-Arg)6-D-Lys-NH2] (X3-[dR][dR][dR][dR][dR][dR][dK]-NH2)",
    "system-name": "PKB (Homo sapiens, UniProt P31749)",
    "remaining activity at 1 µM (%)": 80
  },
  {
    "compound": "N=C(N)NCCC[C@@H](NC(=O)CNC(=O)[C@@H](CCCNC(=N)N)NC(=O)[C@@H](CCCNC(=N)N)NC(=O)Cn1cc(CNCc2nc3c(sc4ccc(Br)cc43)c(=O)[nH]2)nn1)C(=O)N[C@H](CCCCN)C(N)=O",
    "system-name": "PKB (Homo sapiens, UniProt P31749)",
    "remaining activity at 1 µM (%)": 72
  },
  {
    "compound": "N=C(N)NCCC[C@@H](NC(=O)CNC(=O)[C@@H](CCCNC(=N)N)NC(=O)[C@@H](CCCNC(=N)N)NC(=O)CCCCCCCNCc1nc2c(sc3cc(Br)cnc32)c(=O)[nH]1)C(=O)N[C@H](CCCCN)C(N)=O",
    "system-name": "PKB (Homo sapiens, UniProt P31749)",
    "remaining activity at 1 µM (%)": 101
  },
  {
    "compound": "N=C(N)NCCC[C@@H](NC(=O)CCCCCNC(=O)Cn1cnc2c(I)c(I)c(I)c(I)c21)C(=O)N[C@H](CCCNC(=N)N)C(=O)N[C@H](CCCNC(=N)N)C(=O)N[C@H](CCCNC(=N)N)C(=O)N[C@H](CCCNC(=N)N)C(=O)N[C@H](CCCNC(=N)N)C(=O)N[C@H](CCCCN)C(N)=O",
    "system-name": "PKB (Homo sapiens, UniProt P31749)",
    "remaining activity at 1 µM (%)": -1
  }
]

## Task Specify reported remaining activity at 1 µM for the compound shown: `N=C(N)NCCC[C@@H](NC(=O)CNC(=O)[C@@H](CCCNC(=N)N)NC(=O)[C@@H](CCCNC(=N)N)NC(=O)CCCCCCCNCc1nc2c(sc3ccc(Br)cc32)c(=O)[nH]1)C(=O)N[C@H](CCCCN)C(N)=O`
## Result 67
